- Test name: log P by HPLC on reversed-phase column (C18), EEC directive 79/831 Annex V.A8
- Format: physicochemical
- Recorded conditions: Table A; HPLC reversed-phase C18, 43° C.; data refer to the E isomer
# log p annotations
Output: the number by itself.

Compound | log p
CON=Cc1cc(C)c(NC(=O)c2cc(Br)nn2-c2ncccc2Cl)c(C(=O)N(NS(C)(=O)=O)S(C)(=O)=O)c1 [A-12] | 2.99
CON=Cc1cc(C)c(NC(=O)c2cc(C(F)(F)F)nn2-c2ncccc2Cl)c(C(=O)N(C)NC(=O)OC)c1 (mixture of isomers) [A-48] | 3.00

Lookup result for C=CCOC(=O)NNC(=O)c1cc(C=NOC)cc(C)c1NC(=O)c1cc(C(F)(F)F)nn1-c1ncccc1Cl [A-21] ; measured log p: 3.04
